Values of pIC50 for Autotaxin (Homo sapiens), collected from a number of published sources:
pIC50: −log10 of the molar value.

See these solved cases before continuing.
> print(dat)
                                   molecule      observed
1  O=C(O)C[C@H]1CN(Cc2ccc3c(C(F)(F)F)c(O[C@H]4CC[C@@H](C(F)(F)F)CC4)ccc3c2)CCO1        ≥ 6.60
2  Cc1c(Sc2cccc(C(=O)O)c2F)c2ccc(Cl)c(F)c2n1CC(=O)N1C[C@H](O)[C@@H](N(C)C)C1        ≥ 6.30
3  CCCCC1CN(CC(=O)N(C)CCC#N)C(=O)c2cc(-c3ccc(Cl)cc3)nn21 (stereo not drawn)  7.00 to 8.00

Param readout= pIC50; system= Autotaxin (Homo sapiens); entry= CCCCCC1CN(CC(=O)N2CCCCC2C)C(=O)c2cc(-c3ccc(Cl)cc3)nn21 (stereo not drawn) ; returns value.
7.00 to 8.00

Param readout= pIC50; system= Autotaxin (Homo sapiens); entry= `CCc1cc(CNc2ncc(C(=O)N3CCC34COC4)cn2)cc(OC(F)(F)F)c1` ; returns value.
> 7.00

Param readout= pIC50; system= Autotaxin (Homo sapiens); entry= `NCCn1cc(-n2c(C3CC3)c(Sc3cccc(C(=O)O)c3F)c3ccc(Cl)c(F)c32)cn1` ; returns value.
> 6.30

Param readout= pIC50; system= Autotaxin (Homo sapiens); entry= `CC(C)[C@@H](NC(=O)c1cc(Cl)cc(C(F)(F)F)c1)C(=O)N1CCC2(CC1)C(=O)N(C)CN2c1ccc(=O)n(C)c1` ; returns value.
> 6.30

Param readout= pIC50; system= Autotaxin (Homo sapiens); entry= `Cc1c(Sc2cccc(C(=O)O)n2)c2ccc(Cl)c(F)c2n1CC(=O)N1CC2(CCC2)c2c(F)cccc21` ; returns value.
≥ 6.30

Param readout= pIC50; system= Autotaxin (Homo sapiens); entry= `CC(C)(CC(=O)O)CN1C(=O)[C@@H]2Cc3c(n(Cc4ccc(F)cc4)c4ccccc34)CN2C1=O` ; returns value.
> 6.30
